test system: SK-MEL-28; assay: NCI tumour cell line growth inhibition, 48 h
The source made the active and inactive calls. Cut-off read from the data, not from the text of the source: active = GI50 up to about 1.1 µM and inactive = higher.
Property measured: GI50

Reference set (4 entries):
compound=O=C1C=C(NCCc2ccc(O)cc2)C(=O)C=C1NCCc1ccc(O)cc1 val="> 100 µM (inactive)"
compound=c1ccc(/C(=N/Nc2ccccn2)c2ncccn2)cc1 val="3.93 µM (inactive)"
compound=COc1ccc(-c2nc3ccc(C)cc3o2)c(OC)c1 val="55.7 µM (inactive)"
compound="CC1CC(OP(=O)(OCc2ccccc2)OCc2ccccc2)[C@@H](OCc2ccccc2)C(OCc2ccccc2)C1OCc1ccccc1 (stereo not given in full)" val="> 100 µM (inactive)"

I have 2 compounds here; please give me GI50 for each one.
1. NC(=O)c1c2c(cc3c(=O)c4ccccc4[nH]c13)CCCC2
2. COc1ccc(-c2c(C#N)c(-c3ccccc3)n(NS(=O)(=O)c3ccccc3)c(=O)c2C#N)cc1

Result string:
1. > 100 µM (inactive)
2. > 100 µM (inactive)

I have 2 compounds here; please give me GI50 for each one.
1. Cc1[nH]c2c(c1C)S(=O)(=O)c1cc3ccccc3nc1N2
2. O=C(O)Cc1ccc(Oc2nc3ccccc3nc2-c2cccs2)cc1

Result string:
1: 25.5 µM (inactive); 2: 60.4 µM (inactive)

I have 2 compounds here; please give me GI50 for each one.
1. COc1ccc2[nH]c3c(C)cc([N+](=O)[O-])c(C)c3c2c1
2. COc1ccc2cc(Oc3ccc(Cl)cc3)c(=O)oc2c1

Result string:
1. 24.7 µM (inactive)
2. > 100 µM (inactive)
